System: HS 578T breast
Experiment: NCI tumour cell line growth inhibition, 48 h; in the data active = GI50 below about 0.43 µM; inactive = the rest
Classes used: Yes for active, No for inactive

compound	assay target	class name
Nc1ncnc2c1N=C(c1ccc3c(c1)OCO3)CC(c1ccc(Cl)cc1)N2 (stereo not drawn)	HS 578T breast	No
Cc1cccc(NC(=O)c2sc3nc4c(cc3c2N)C(=O)CCC4)c1	HS 578T breast	Yes
O=C(/C=C/C12c3ccccc3C(c3ccccc31)C1C(=O)NC(=O)C12)c1ccccn1 (stereo not drawn)	HS 578T breast	No
CNC(=O)c1ncccc1Nc1nc(Nc2cc3c(cc2OC)CCCN3C(=O)CN(C)C)nc2[nH]ccc12	HS 578T breast	No
CC1(C)N=C(N)N=C(N)N1c1ccc(CCC(=O)Nc2ccc(S(=O)(=O)F)cc2)cc1	HS 578T breast	No
COc1ccc(OC)c(/C=C/c2nc(=S)n(-c3ccc(Cl)cc3)[nH]2)c1	HS 578T breast	No
Cn1nccc1Nc1nccc(-c2ccn([C@H](CO)c3ccc(Cl)c(F)c3)c(=O)c2)n1	HS 578T breast	No
OC1(c2ccc(Cl)c(C(F)(F)F)c2)CCN(CCCC(c2ccc(F)cc2)c2ccc(F)cc2)CC1	HS 578T breast	No
COc1ccc2c(c1)C(=O)c1c-2c(Nc2ccccc2OC)nc2ccccc12	HS 578T breast	No
CCN=c1sc2c(n1NC(=O)c1cc3ccc1CCc1ccc(cc1)CC3)C(=O)c1ccccc1C2=O	HS 578T breast	No
CCCCCCCCCCCC[N+]1(CCCCCCCCCCCC)CCCC(C)C1 (stereo not drawn)	HS 578T breast	No
COc1ccc2c(c1)c(-c1nc(-c3c[nH]c4ncccc34)cs1)cn2CCCN1CCOCC1	HS 578T breast	No
CN[C@@H](C)C(=O)N[C@H]1CN(S(=O)(=O)c2cccc(S(=O)(=O)N3CC[C@H]4CC[C@@H](C(=O)NC(c5ccccc5)c5ccccc5)N4C(=O)[C@@H](NC(=O)[C@H](C)NC)C3)c2)CC[C@H]2CC[C@@H](C(=O)NC(c3ccccc3)c3ccccc3)N2C1=O	HS 578T breast	No

---

Test system: RPMI-8226 leukemia
Assay: NCI tumour cell line growth inhibition, 48 h
Measured log10 of TGI accompanies every entry in the list below.
measurement label: log10 of TGI (log10 of the value in µM)

>>> print(df.to_string())
                                   molecule   val
0  OC1(c2ccc(Cl)c(C(F)(F)F)c2)CCN(CCCC(c2ccc(F)cc2)c2ccc(F)cc2)CC1  0.43
1   CN(O)C(=O)/C=C/c1ccc(OCc2cccc(Cl)c2)cc1  1.99
2  COC(=O)CNC(=O)C(CSC(=O)OCC1c2ccccc2-c2ccccc21)NC(=O)CCC(NC(=O)OCC1c2ccccc2-c2ccccc21)C(=O)OC (centres undefined)  1.95
3  Cc1c2cccc-2c2cc(O)c3ccccc3c2n1-c1ccc(N(C)C)cc1  1.42
4  COc1ccc2c(N)ncc(C#Cc3cc(C(=O)Nc4ccc(CN5CCN(C)CC5)c(C(F)(F)F)c4)cnc3C)c2c1  0.35

---

System: MALME-3M melanoma
Test: NCI tumour cell line growth inhibition, 48 h
Measured TGI accompanies every entry in the list below.
measurement label: TGI (µM)

>>> df
                                   molecule  value_qualifier   val
0  COC(=O)CCC(NC(=S)N/N=C/c1cccs1)C(=O)OC (stereo not given)                >   100
1  O=c1c(F)cn2c(=O)n1CCCCCCCn1c(=O)c(F)cn(c1=O)CCCCCCC2                =  88.8
2  CC1(C)N=C(N)N=C(N)N1c1ccc(CCC(=O)Nc2ccc(S(=O)(=O)F)cc2)cc1                >   100
3        O=C1C=C[C@H](O)[C@@]2(CO)O[C@@H]12                =  9.32
4  O=C(OCc1ccc2c(Br)cc(Br)c(O)c2n1)c1cc2ccccc2[nH]1                =  2.77
